target.entity: Adenosine receptor A3 (Homo sapiens)
Sequence (P0DMS8 whole entry): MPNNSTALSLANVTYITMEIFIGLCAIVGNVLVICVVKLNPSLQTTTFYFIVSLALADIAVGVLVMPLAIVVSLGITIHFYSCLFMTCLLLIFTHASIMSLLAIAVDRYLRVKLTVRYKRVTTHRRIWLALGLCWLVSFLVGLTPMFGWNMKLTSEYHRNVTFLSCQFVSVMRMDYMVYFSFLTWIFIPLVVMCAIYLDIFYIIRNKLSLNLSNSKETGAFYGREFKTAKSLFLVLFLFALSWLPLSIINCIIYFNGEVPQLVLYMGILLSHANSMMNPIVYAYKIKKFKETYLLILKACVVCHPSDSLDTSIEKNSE
test: Displacement of [125I]ABMECA from human recombinant adenosine A3 receptor expressed in CHO cells
Type: cell-based
Could you please report measured pKi for the items listed next?
# log scale: pKi equals minus log10 of the concentration in mol/L

Exam item: What does the data say about its pKi? Entry: CCn1c(=O)n(CC(C)C)c(=O)c2[nH]c(-c3cnn(Cc4cccc(C(F)(F)F)c4)c3)nc21
Marked response: 6.60

Exam item: What does the data say about its pKi? Entry: CCCn1c(=O)c2[nH]c(-c3cnn(Cc4cccc(F)c4)c3)nc2n(C)c1=O
Marked response: 7.02

Exam item: What does the data say about its pKi? Entry: CCCn1c(=O)c2[nH]c(-c3cnn(Cc4nc(-c5ccc(Cl)cc5)no4)c3)nc2n(CC)c1=O
Marked response: 6.38

Exam item: What does the data say about its pKi? Entry: CCCn1c(=O)c2[nH]c(-c3cnn(Cc4cccc(C(F)(F)F)c4)c3)nc2n(CC)c1=O
Marked response: 5.97

---

test: AUC (0 to tlast) in Sprague-Dawley rat at 2 mg/kg, po
Type: ADME, organism-based
Set-up: dose 2 mg/kg, route oral
measurement.parameters: plasma
reported.property: AUC(0-t) (ng·h/mL)
Express it in ng·h/mL; write the number only.

Exam item: What does the data say about its AUC(0-t)? Entry: CCCn1c(=O)c2[nH]c(-c3cnn(Cc4noc(-c5ccc(C(F)(F)F)cc5)n4)c3)nc2n(CC)c1=O
Marked response: 65.6

---

Organism: Homo sapiens
test: Selectivity for human recombinant adenosine A2B receptor over human recombinant adenosine A2A receptor
Could you please report measured Ratio Ki for the items listed next?
Could you keep your reply to the number by itself?

Exam item: What does the data say about its Ratio Ki? Entry: CCCn1c(=O)c2[nH]c(-c3cnn(Cc4cccc(F)c4)c3)nc2n(CCC)c1=O
Marked response: 17

Exam item: What does the data say about its Ratio Ki? Entry: CCCn1c(=O)c2[nH]c(-c3cnn(Cc4nc(-c5ccc(Cl)cc5)no4)c3)nc2n(CC)c1=O
Marked response: 236

Exam item: What does the data say about its Ratio Ki? Entry: Cn1c(=O)c2[nH]c(-c3cnn(Cc4cccc(F)c4)c3)nc2n(C)c1=O
Marked response: 7

Exam item: What does the data say about its Ratio Ki? Entry: Cn1c(=O)n(CC2CC2)c(=O)c2[nH]c(-c3cnn(Cc4cccc(C(F)(F)F)c4)c3)nc21
Marked response: 15

Exam item: What does the data say about its Ratio Ki? Entry: Cn1c(=O)n(CC2CC2)c(=O)c2[nH]c(-c3cnn(Cc4cccc(F)c4)c3)nc21
Marked response: 10

Exam item: What does the data say about its Ratio Ki? Entry: CC(C)Cn1c(=O)c2[nH]c(-c3cnn(Cc4cccc(F)c4)c3)nc2n(C)c1=O
Marked response: 5

Exam item: What does the data say about its Ratio Ki? Entry: Cn1c(=O)c2nc(-c3cnn(Cc4cccc(C(F)(F)F)c4)c3)[nH]c2n(C)c1=O
Marked response: 686

---

Could you please report measured Ratio Ki for the items listed next?
Species on record: Homo sapiens
test: Selectivity for human recombinant adenosine A2B receptor over human recombinant adenosine A1 receptor
Could you keep your reply to the number by itself?

Exam item: What does the data say about its Ratio Ki? Entry: CCCCn1c(=O)c2[nH]c(-c3cnn(Cc4ccccc4)c3)nc2n(C)c1=O
Marked response: 13

Exam item: What does the data say about its Ratio Ki? Entry: Cn1c(=O)n(CC2CC2)c(=O)c2[nH]c(-c3cnn(Cc4ccccc4)c3)nc21
Marked response: 14

Exam item: What does the data say about its Ratio Ki? Entry: CCn1c(=O)n(CC2CC2)c(=O)c2[nH]c(-c3cnn(Cc4ccc(C(F)(F)F)nc4)c3)nc21
Marked response: 80

Exam item: What does the data say about its Ratio Ki? Entry: CCCn1c(=O)c2[nH]c(-c3cnn(Cc4ccc[n+]([O-])c4)c3)nc2n(CC)c1=O
Marked response: 2

---

target.entity: Adenosine receptor A3 (Homo sapiens, UniProt P0DMS8)
Sequence (P0DMS8 whole entry): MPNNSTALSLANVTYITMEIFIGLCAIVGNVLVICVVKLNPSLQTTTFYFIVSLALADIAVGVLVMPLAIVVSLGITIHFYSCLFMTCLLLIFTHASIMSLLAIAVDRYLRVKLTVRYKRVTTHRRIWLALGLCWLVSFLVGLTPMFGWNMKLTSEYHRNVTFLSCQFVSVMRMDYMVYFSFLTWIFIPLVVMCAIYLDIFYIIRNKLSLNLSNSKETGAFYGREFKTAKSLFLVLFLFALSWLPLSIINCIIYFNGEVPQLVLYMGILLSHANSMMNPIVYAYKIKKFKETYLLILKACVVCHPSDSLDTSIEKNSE
test: Displacement of [125I]ABMECA from human recombinant adenosine A3 receptor expressed in CHO cells
reported.property: pKi
# log scale: pKi equals minus log10 of the concentration in mol/L

Exam item: What does the data say about its pKi? Entry: Cn1c(=O)n(CC2CC2)c(=O)c2[nH]c(-c3cnn(Cc4ccccc4)c3)nc21
Marked response: 7.04

Exam item: What does the data say about its pKi? Entry: CCCn1c(=O)c2[nH]c(-c3cnn(Cc4cc(-c5ccc(C(F)(F)F)cc5)on4)c3)nc2n(CC)c1=O
Marked response: 5.42

Exam item: What does the data say about its pKi? Entry: CCn1c(=O)c2[nH]c(-c3cnn(Cc4cccc(C(F)(F)F)c4)c3)nc2n(C)c1=O
Marked response: 6.58

Exam item: What does the data say about its pKi? Entry: CCn1c(=O)n(CC2CC2)c(=O)c2[nH]c(-c3cnn(Cc4cccc(C(F)(F)F)c4)c3)nc21
Marked response: 6.49

Exam item: What does the data say about its pKi? Entry: CC(C)Cn1c(=O)c2[nH]c(-c3cnn(Cc4ccccc4)c3)nc2n(C)c1=O
Marked response: 6.69

Exam item: What does the data say about its pKi? Entry: CCCCn1c(=O)c2[nH]c(-c3cnn(Cc4cccc(C(F)(F)F)c4)c3)nc2n(C)c1=O
Marked response: 6.34

Exam item: What does the data say about its pKi? Entry: CCn1c(=O)c2[nH]c(-c3cnn(Cc4ccccc4)c3)nc2n(C)c1=O
Marked response: 7.04

Exam item: What does the data say about its pKi? Entry: CCCn1c(=O)c2[nH]c(-c3cnn(Cc4cccc(F)c4)c3)nc2n(CC)c1=O
Marked response: 6.02

Exam item: What does the data say about its pKi? Entry: CCn1c(=O)n(CC2CC2)c(=O)c2[nH]c(-c3cnn(Cc4ccc(C(F)(F)F)nc4)c3)nc21
Marked response: 6.40

---

Species: Homo sapiens
test: Selectivity for human recombinant adenosine A2B receptor over human recombinant adenosine A1 receptor
Classify: rule met when Ratio Ki is strictly less than 9; rule not met when Ratio Ki is not.

Exam item: Quick check: does CCCn1c(=O)c2[nH]c(-c3cnn(Cc4cc(-c5ccc(Cl)cc5)on4)c3)nc2n(CC)c1=O have Ratio Ki under 9?
Marked response: rule met

Exam item: Quick check: does Cn1c(=O)n(CC2CC2)c(=O)c2[nH]c(-c3cnn(Cc4cccc(C(F)(F)F)c4)c3)nc21 have Ratio Ki under 9?
Marked response: rule met

Exam item: Quick check: does CCCn1c(=O)c2[nH]c(-c3cnn(Cc4cccc(C(F)(F)F)c4)c3)nc2n(C)c1=O have Ratio Ki under 9?
Marked response: rule not met

Exam item: Quick check: does CCCn1c(=O)c2[nH]c(-c3cnn(Cc4cc(-c5ccc(C(F)(F)F)cc5)on4)c3)nc2n(CC)c1=O have Ratio Ki under 9?
Marked response: rule not met

Exam item: Quick check: does CCCn1c(=O)c2[nH]c(-c3cnn(Cc4ccccc4)c3)nc2n(C)c1=O have Ratio Ki under 9?
Marked response: rule not met

Exam item: Quick check: does Cn1c(=O)n(CC2CC2)c(=O)c2[nH]c(-c3cnn(Cc4cccc(F)c4)c3)nc21 have Ratio Ki under 9?
Marked response: rule not met

Exam item: Quick check: does CCCn1c(=O)c2[nH]c(-c3cnn(Cc4cccc(C(F)(F)F)c4)c3)nc2n(CCC)c1=O have Ratio Ki under 9?
Marked response: rule not met

Exam item: Quick check: does CCCCn1c(=O)c2[nH]c(-c3cnn(Cc4cccc(F)c4)c3)nc2n(C)c1=O have Ratio Ki under 9?
Marked response: rule not met

Exam item: Quick check: does CCCCn1c(=O)c2[nH]c(-c3cnn(Cc4cccc(C(F)(F)F)c4)c3)nc2n(C)c1=O have Ratio Ki under 9?
Marked response: rule not met

Exam item: Quick check: does CCn1c(=O)n(CC2CC2)c(=O)c2[nH]c(-c3cnn(Cc4ccccc4)c3)nc21 have Ratio Ki under 9?
Marked response: rule not met

Exam item: Quick check: does CCCn1c(=O)c2[nH]c(-c3cn[nH]c3)nc2n(CC)c1=O have Ratio Ki under 9?
Marked response: rule met

Exam item: Quick check: does CCn1c(=O)n(CC2CC2)c(=O)c2[nH]c(-c3cn[nH]c3)nc21 have Ratio Ki under 9?
Marked response: rule met

Exam item: Quick check: does CC(C)Cn1c(=O)c2[nH]c(-c3cnn(Cc4cccc(C(F)(F)F)c4)c3)nc2n(C)c1=O have Ratio Ki under 9?
Marked response: rule met

Exam item: Quick check: does CC(C)Cn1c(=O)c2[nH]c(-c3cnn(Cc4ccccc4)c3)nc2n(C)c1=O have Ratio Ki under 9?
Marked response: rule not met

Exam item: Quick check: does CCCn1c(=O)c2[nH]c(-c3cnn(Cc4cccc(C(F)(F)F)c4)c3)nc2n(CC)c1=O have Ratio Ki under 9?
Marked response: rule not met

Exam item: Quick check: does Cn1c(=O)c2nc(-c3cnn(Cc4cccc(C(F)(F)F)c4)c3)[nH]c2n(C)c1=O have Ratio Ki under 9?
Marked response: rule not met

Exam item: Quick check: does CCn1c(=O)n(CC(C)C)c(=O)c2[nH]c(-c3cn[nH]c3)nc21 have Ratio Ki under 9?
Marked response: rule met

Exam item: Quick check: does CCn1c(=O)n(CC2CC2)c(=O)c2[nH]c(-c3cnn(Cc4cccc(C(F)(F)F)c4)c3)nc21 have Ratio Ki under 9?
Marked response: rule not met

Each recorded value in this set is attributed to ChEMBL document CHEMBL1145545.
